molecular target: MLK-7 (Homo sapiens); construct: GST; His tag; assay: In vitro assay of purified MLK-7 kinase activity (33P transfer from ATP to myelin basic protein); settings: recombinant GST-tagged MLK-7 at 1 nm, 30 uM ATP, 5 uM MBP substrate, 2 hours room temperature; read-out: MLK7 IC50
Property: IC50; scope: individual molecules

[[record]]
molecule = "CC(C)(C)OC(=O)N1CCCC(NC(=O)c2ccc(-c3ccc4c(-c5c(-c6ccccn6)nn6c5CCC6)ccnc4c3)cc2)C1 (stereo not shown) [Example 130]"
study_system = "MLK-7 (Homo sapiens)"
observed_property = "IC50"
reported_result = "≤ 100 nM"

[[record]]
molecule = "O=[N+]([O-])c1ccc(-c2ccc3c(-c4c(-c5ccccn5)nn5c4CCC5)ccnc3c2)cc1 [Example 14, Trifluoroacetic Acid]"
study_system = "MLK-7 (Homo sapiens)"
observed_property = "IC50"
reported_result = "≤ 100 nM"

[[record]]
molecule = "Nc1ccc(-c2ccc3c(-c4c(-c5ccccn5)nn5c4CCC5)ccnc3c2)cc1F [Example 78, Ditrifluoroacetic Acid]"
study_system = "MLK-7 (Homo sapiens)"
observed_property = "IC50"
reported_result = "≤ 100 nM"

[[record]]
molecule = "c1ccc(-c2nn3c(c2-c2ccnc4cc(-c5ccc(C6CCCCC6)cc5)ccc24)CCC3)nc1 [Example 53, Trifluoroacetic Acid]"
study_system = "MLK-7 (Homo sapiens)"
observed_property = "IC50"
reported_result = "≤ 10000 nM"

[[record]]
molecule = "CSc1ccc(-c2ccc3c(-c4c(-c5ccccn5)nn5c4CCC5)ccnc3c2)cc1 [Example 25, Trifluoroacetic Acid]"
study_system = "MLK-7 (Homo sapiens)"
observed_property = "IC50"
reported_result = "≤ 1000 nM"


Which measured IC50 belongs to CC(=O)Nc1ccc(-c2ccc3c(-c4c(-c5ccccn5)nn5c4CCC5)ccnc3c2)cc1 [Example 3] , tested on MLK-7 (Homo sapiens)?
≤ 100 nM

Which measured IC50 belongs to Oc1c(F)cc(-c2ccc3c(-c4c(-c5ccccn5)nn5c4CCC5)ccnc3c2)cc1Cl [Example 91, Trifluoroacetic Acid] , tested on MLK-7 (Homo sapiens)?
≤ 100 nM

---

target: MLK-7 (Homo sapiens, UniProt Q9NYL2); construct: GST; His tag; assay: In vitro assay of purified MLK-7 kinase activity (33P transfer from ATP to myelin basic protein); details: recombinant GST-tagged MLK-7 at 1 nm, 30 uM ATP, 5 uM MBP substrate, 2 hours room temperature; read-out: MLK7 IC50
Sequence (Q9NYL2 1-455 isoform Q9NYL2-2): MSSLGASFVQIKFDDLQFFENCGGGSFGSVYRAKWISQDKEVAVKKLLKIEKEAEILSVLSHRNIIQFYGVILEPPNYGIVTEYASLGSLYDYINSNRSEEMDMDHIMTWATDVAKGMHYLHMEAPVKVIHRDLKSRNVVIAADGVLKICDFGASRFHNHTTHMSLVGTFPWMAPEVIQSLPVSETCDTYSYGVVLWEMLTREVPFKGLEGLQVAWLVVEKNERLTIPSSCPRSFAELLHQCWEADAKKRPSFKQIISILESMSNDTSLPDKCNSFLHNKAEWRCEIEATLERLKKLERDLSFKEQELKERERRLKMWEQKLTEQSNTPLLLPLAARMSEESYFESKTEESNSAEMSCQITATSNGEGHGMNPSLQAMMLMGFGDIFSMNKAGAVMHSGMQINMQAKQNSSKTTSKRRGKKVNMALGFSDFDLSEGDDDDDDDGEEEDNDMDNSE
pIC50: −log10 of the molar value.
observed_property: pIC50

Worked set:
[[record]]
compound = "c1ccc(-c2nn3c(c2-c2ccnc4cc(-c5cc6ccccc6[nH]5)ccc24)CCC3)nc1"
reported_result = "≥ 7.00"

[[record]]
compound = "O=C(NC1CCS(=O)(=O)C1)c1ccc(-c2ccc3c(-c4c(-c5ccccn5)nn5c4CCC5)ccnc3c2)cc1 (racemic)"
reported_result = "≥ 7.00"


Which measured pIC50 value corresponds to O=C(O)CCc1ccc(-c2ccc3c(-c4c(-c5ccccn5)nn5c4CCC5)ccnc3c2)cc1 ?
≥ 7.00

Which measured pIC50 value corresponds to O=C(O)c1cc(C(=O)O)cc(-c2ccc3c(-c4c(-c5ccccn5)nn5c4CCC5)ccnc3c2)c1 ?
≥ 5.00

Which measured pIC50 value corresponds to CC(C)(C)OC(=O)NCCCC[C@H](NC(=O)c1ccc(-c2ccc3c(-c4c(-c5ccccn5)nn5c4CCC5)ccnc3c2)cc1)C(=O)OC(C)(C)C ?
≥ 6.00

Which measured pIC50 value corresponds to Clc1cccc(-c2ccc3c(-c4c(-c5ccccn5)nn5c4CCC5)ccnc3c2)c1 ?
≥ 7.00

Which measured pIC50 value corresponds to NCCc1ccc(-c2ccc3c(-c4c(-c5ccccn5)nn5c4CCC5)ccnc3c2)cc1 ?
≥ 7.00

Which measured pIC50 value corresponds to O=S1(=O)Cc2ccc(-c3ccc4c(-c5c(-c6ccccn6)nn6c5CCC6)ccnc4c3)cc2C1 ?
≥ 7.00

Which measured pIC50 value corresponds to CS(=O)(=O)Nc1cccc(-c2ccc3c(-c4c(-c5ccccn5)nn5c4CCC5)ccnc3c2)c1 ?
≥ 7.00
